Hey, just so you know, these numbers are from paper PMC7721954.

test system: LNCaP tumor-bearing male CB-17 SCID mice; assay: Biodistribution 1 h p.i.; assay type: in vivo
measure-name: Biodistribution Lung (% ID/g)
Note: unit % ID/g is implicit; provide only the numeric part.

compound	unit-symbol	Biodistribution Lung
CC(C)(C)[Si]([18F])(c1ccc(C(=O)NC[C@@H](NC(=O)CC[C@@H](C(=O)O)N2CCN(CC(=O)[O-])CCN(CC(=O)[O-])CCN(CC(=O)[O-])CC2)C(=O)N[C@H](CCCCNC(=O)CCC(=O)NCCC[C@@H](NC(=O)CC[C@H](NC(=O)N[C@@H](CCC(=O)O)C(=O)O)C(=O)O)C(=O)O)C(=O)O)cc1)C(C)(C)C.[Ga+3] [[^18F, ^natGa]rhPSMA-7.3]	% ID/g	2.2

### Prompt Find the measured Biodistribution Lung of CC(C)(C)[Si]([18F])(c1ccc(C(=O)NC[C@H](NC(=O)CC[C@H](C(=O)O)N2CCN(CC(=O)[O-])CCN(CC(=O)[O-])CCN(CC(=O)[O-])CC2)C(=O)N[C@H](CCCCNC(=O)CCC(=O)NCCC[C@@H](NC(=O)CC[C@H](NC(=O)N[C@@H](CCC(=O)O)C(=O)O)C(=O)O)C(=O)O)C(=O)O)cc1)C(C)(C)C.[Ga+3] [[^18F, ^natGa]rhPSMA-7.2] and report it.
### Response 0.89

### Prompt Find the measured Biodistribution Lung of CC(C)(C)[Si]([18F])(c1ccc(C(=O)NC[C@H](NC(=O)CC[C@@H](C(=O)O)N2CCN(CC(=O)[O-])CCN(CC(=O)[O-])CCN(CC(=O)[O-])CC2)C(=O)N[C@H](CCCCNC(=O)CCC(=O)NCCC[C@@H](NC(=O)CC[C@H](NC(=O)N[C@@H](CCC(=O)O)C(=O)O)C(=O)O)C(=O)O)C(=O)O)cc1)C(C)(C)C.[Ga+3] [[^18F, ^natGa]rhPSMA-7.4] and report it.
### Response 1.59

### Prompt Find the measured Biodistribution Lung of CC(C)(C)[Si]([18F])(c1ccc(C(=O)NC[C@@H](NC(=O)CC[C@H](C(=O)O)N2CCN(CC(=O)[O-])CCN(CC(=O)[O-])CCN(CC(=O)[O-])CC2)C(=O)N[C@H](CCCCNC(=O)CCC(=O)NCCC[C@@H](NC(=O)CC[C@H](NC(=O)N[C@@H](CCC(=O)O)C(=O)O)C(=O)O)C(=O)O)C(=O)O)cc1)C(C)(C)C.[Ga+3] [[^18F, ^natGa]rhPSMA-7.1] and report it.
### Response 1.1

====

molecular target: human serum albumin (Homo sapiens, UniProt P02768); construct: purchased; assay: Human serum albumin binding on Chiralpak HSA column; assay type: in vitro ADME
Sequence (P02768 25-609): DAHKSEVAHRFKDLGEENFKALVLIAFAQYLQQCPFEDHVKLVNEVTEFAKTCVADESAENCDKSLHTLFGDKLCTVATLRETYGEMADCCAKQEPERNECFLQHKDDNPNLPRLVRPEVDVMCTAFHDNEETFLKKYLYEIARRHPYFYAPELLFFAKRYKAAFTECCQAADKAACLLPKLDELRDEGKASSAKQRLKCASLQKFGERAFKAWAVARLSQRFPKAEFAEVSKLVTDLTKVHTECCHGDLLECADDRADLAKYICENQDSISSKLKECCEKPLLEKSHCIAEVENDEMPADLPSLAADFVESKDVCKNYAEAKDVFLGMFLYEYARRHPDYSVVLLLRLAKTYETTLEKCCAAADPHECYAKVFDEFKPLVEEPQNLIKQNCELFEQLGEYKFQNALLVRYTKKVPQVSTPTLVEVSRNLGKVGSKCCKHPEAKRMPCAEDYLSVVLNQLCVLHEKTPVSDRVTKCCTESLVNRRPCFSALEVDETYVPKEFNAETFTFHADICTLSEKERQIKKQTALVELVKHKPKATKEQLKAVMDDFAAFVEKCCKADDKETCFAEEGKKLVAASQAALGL
measure-name: HSA-binding (%)
Note: unit % is implicit; provide only the numeric part.

molecule	unit-symbol	HSA-binding
CC(C)(C)[Si]([18F])(c1ccc(C(=O)NC[C@@H](NC(=O)CC[C@@H](C(=O)O)N2CCN(CC(=O)[O-])CCN(CC(=O)[O-])CCN(CC(=O)[O-])CC2)C(=O)N[C@H](CCCCNC(=O)CCC(=O)NCCC[C@@H](NC(=O)CC[C@H](NC(=O)N[C@@H](CCC(=O)O)C(=O)O)C(=O)O)C(=O)O)C(=O)O)cc1)C(C)(C)C.[Ga+3] [[^18F, ^natGa]rhPSMA-7.3]	%	97
CC(C)(C)[Si]([18F])(c1ccc(C(=O)NC[C@@H](NC(=O)CC[C@H](C(=O)O)N2CCN(CC(=O)[O-])CCN(CC(=O)[O-])CCN(CC(=O)[O-])CC2)C(=O)N[C@H](CCCCNC(=O)CCC(=O)NCCC[C@@H](NC(=O)CC[C@H](NC(=O)N[C@@H](CCC(=O)O)C(=O)O)C(=O)O)C(=O)O)C(=O)O)cc1)C(C)(C)C.[Ga+3] [[^18F, ^natGa]rhPSMA-7.1]	%	98

### Prompt Quote human serum albumin (Homo sapiens, UniProt P02768) HSA-binding for entry CC(C)(C)[Si]([18F])(c1ccc(C(=O)NC[C@H](NC(=O)CC[C@@H](C(=O)O)N2CCN(CC(=O)[O-])CCN(CC(=O)[O-])CCN(CC(=O)[O-])CC2)C(=O)N[C@H](CCCCNC(=O)CCC(=O)NCCC[C@@H](NC(=O)CC[C@H](NC(=O)N[C@@H](CCC(=O)O)C(=O)O)C(=O)O)C(=O)O)C(=O)O)cc1)C(C)(C)C.[Ga+3] [[^18F, ^natGa]rhPSMA-7.4] .
### Response 97

### Prompt Quote human serum albumin (Homo sapiens, UniProt P02768) HSA-binding for entry CC(C)(C)[Si]([18F])(c1ccc(C(=O)NC[C@H](NC(=O)CC[C@H](C(=O)O)N2CCN(CC(=O)[O-])CCN(CC(=O)[O-])CCN(CC(=O)[O-])CC2)C(=O)N[C@H](CCCCNC(=O)CCC(=O)NCCC[C@@H](NC(=O)CC[C@H](NC(=O)N[C@@H](CCC(=O)O)C(=O)O)C(=O)O)C(=O)O)C(=O)O)cc1)C(C)(C)C.[Ga+3] [[^18F, ^natGa]rhPSMA-7.2] .
### Response 98

====

test system: LNCaP tumor-bearing male CB-17 SCID mice; experiment: Biodistribution 1 h p.i. with competition (co-injection of 2-PMPA); format: in vivo; details: co-injected with 2-PMPA (8 mg/kg), n = 3
measure-name: Biodistribution Adrenals (% ID/g)
Note: unit % ID/g is implicit; provide only the numeric part.

Below, 3 compounds whose answers are already recorded.
compound	val
CC(C)(C)[Si]([18F])(c1ccc(C(=O)NC[C@@H](NC(=O)CC[C@@H](C(=O)O)N2CCN(CC(=O)[O-])CCN(CC(=O)[O-])CCN(CC(=O)[O-])CC2)C(=O)N[C@H](CCCCNC(=O)CCC(=O)NCCC[C@@H](NC(=O)CC[C@H](NC(=O)N[C@@H](CCC(=O)O)C(=O)O)C(=O)O)C(=O)O)C(=O)O)cc1)C(C)(C)C.[Ga+3] [[^18F, ^natGa]rhPSMA-7.3]	0.07
CC(C)(C)[Si]([18F])(c1ccc(C(=O)NC[C@@H](NC(=O)CC[C@H](C(=O)O)N2CCN(CC(=O)[O-])CCN(CC(=O)[O-])CCN(CC(=O)[O-])CC2)C(=O)N[C@H](CCCCNC(=O)CCC(=O)NCCC[C@@H](NC(=O)CC[C@H](NC(=O)N[C@@H](CCC(=O)O)C(=O)O)C(=O)O)C(=O)O)C(=O)O)cc1)C(C)(C)C.[Ga+3] [[^18F, ^natGa]rhPSMA-7.1]	0.003
CC(C)(C)[Si]([18F])(c1ccc(C(=O)NC[C@H](NC(=O)CC[C@@H](C(=O)O)N2CCN(CC(=O)[O-])CCN(CC(=O)[O-])CCN(CC(=O)[O-])CC2)C(=O)N[C@H](CCCCNC(=O)CCC(=O)NCCC[C@@H](NC(=O)CC[C@H](NC(=O)N[C@@H](CCC(=O)O)C(=O)O)C(=O)O)C(=O)O)C(=O)O)cc1)C(C)(C)C.[Ga+3] [[^18F, ^natGa]rhPSMA-7.4]	0.03

Attention now shifts to the item below.
### Prompt Quote LNCaP tumor-bearing male CB-17 SCID mice Biodistribution Adrenals for entry CC(C)(C)[Si]([18F])(c1ccc(C(=O)NC[C@H](NC(=O)CC[C@H](C(=O)O)N2CCN(CC(=O)[O-])CCN(CC(=O)[O-])CCN(CC(=O)[O-])CC2)C(=O)N[C@H](CCCCNC(=O)CCC(=O)NCCC[C@@H](NC(=O)CC[C@H](NC(=O)N[C@@H](CCC(=O)O)C(=O)O)C(=O)O)C(=O)O)C(=O)O)cc1)C(C)(C)C.[Ga+3] [[^18F, ^natGa]rhPSMA-7.2] .
### Response 0.07

====

tested on: LNCaP tumor-bearing male CB-17 SCID mice; test: Biodistribution 1 h p.i. with competition (co-injection of 2-PMPA); assay type: in vivo; settings: co-injected with 2-PMPA (8 mg/kg), n = 3
Measured Biodistribution Lung by item
Note: unit % ID/g is implicit; provide only the numeric part.

Below, 2 compounds whose answers are already recorded.
compound	measure-name	val
CC(C)(C)[Si]([18F])(c1ccc(C(=O)NC[C@H](NC(=O)CC[C@@H](C(=O)O)N2CCN(CC(=O)[O-])CCN(CC(=O)[O-])CCN(CC(=O)[O-])CC2)C(=O)N[C@H](CCCCNC(=O)CCC(=O)NCCC[C@@H](NC(=O)CC[C@H](NC(=O)N[C@@H](CCC(=O)O)C(=O)O)C(=O)O)C(=O)O)C(=O)O)cc1)C(C)(C)C.[Ga+3] [[^18F, ^natGa]rhPSMA-7.4]	Biodistribution Lung	0.74
CC(C)(C)[Si]([18F])(c1ccc(C(=O)NC[C@@H](NC(=O)CC[C@H](C(=O)O)N2CCN(CC(=O)[O-])CCN(CC(=O)[O-])CCN(CC(=O)[O-])CC2)C(=O)N[C@H](CCCCNC(=O)CCC(=O)NCCC[C@@H](NC(=O)CC[C@H](NC(=O)N[C@@H](CCC(=O)O)C(=O)O)C(=O)O)C(=O)O)C(=O)O)cc1)C(C)(C)C.[Ga+3] [[^18F, ^natGa]rhPSMA-7.1]	Biodistribution Lung	0.85

### Prompt Find the measured Biodistribution Lung of CC(C)(C)[Si]([18F])(c1ccc(C(=O)NC[C@H](NC(=O)CC[C@H](C(=O)O)N2CCN(CC(=O)[O-])CCN(CC(=O)[O-])CCN(CC(=O)[O-])CC2)C(=O)N[C@H](CCCCNC(=O)CCC(=O)NCCC[C@@H](NC(=O)CC[C@H](NC(=O)N[C@@H](CCC(=O)O)C(=O)O)C(=O)O)C(=O)O)C(=O)O)cc1)C(C)(C)C.[Ga+3] [[^18F, ^natGa]rhPSMA-7.2] and report it.
### Response 1.1

### Prompt Find the measured Biodistribution Lung of CC(C)(C)[Si]([18F])(c1ccc(C(=O)NC[C@@H](NC(=O)CC[C@@H](C(=O)O)N2CCN(CC(=O)[O-])CCN(CC(=O)[O-])CCN(CC(=O)[O-])CC2)C(=O)N[C@H](CCCCNC(=O)CCC(=O)NCCC[C@@H](NC(=O)CC[C@H](NC(=O)N[C@@H](CCC(=O)O)C(=O)O)C(=O)O)C(=O)O)C(=O)O)cc1)C(C)(C)C.[Ga+3] [[^18F, ^natGa]rhPSMA-7.3] and report it.
### Response 0.69
